Molecular target: delF508-CFTR (Homo sapiens, UniProt P13569, DEL508-508)
Construct: expressed in transfected cells
Sequence (P13569 with tags, fused parts or gaps DEL508-508): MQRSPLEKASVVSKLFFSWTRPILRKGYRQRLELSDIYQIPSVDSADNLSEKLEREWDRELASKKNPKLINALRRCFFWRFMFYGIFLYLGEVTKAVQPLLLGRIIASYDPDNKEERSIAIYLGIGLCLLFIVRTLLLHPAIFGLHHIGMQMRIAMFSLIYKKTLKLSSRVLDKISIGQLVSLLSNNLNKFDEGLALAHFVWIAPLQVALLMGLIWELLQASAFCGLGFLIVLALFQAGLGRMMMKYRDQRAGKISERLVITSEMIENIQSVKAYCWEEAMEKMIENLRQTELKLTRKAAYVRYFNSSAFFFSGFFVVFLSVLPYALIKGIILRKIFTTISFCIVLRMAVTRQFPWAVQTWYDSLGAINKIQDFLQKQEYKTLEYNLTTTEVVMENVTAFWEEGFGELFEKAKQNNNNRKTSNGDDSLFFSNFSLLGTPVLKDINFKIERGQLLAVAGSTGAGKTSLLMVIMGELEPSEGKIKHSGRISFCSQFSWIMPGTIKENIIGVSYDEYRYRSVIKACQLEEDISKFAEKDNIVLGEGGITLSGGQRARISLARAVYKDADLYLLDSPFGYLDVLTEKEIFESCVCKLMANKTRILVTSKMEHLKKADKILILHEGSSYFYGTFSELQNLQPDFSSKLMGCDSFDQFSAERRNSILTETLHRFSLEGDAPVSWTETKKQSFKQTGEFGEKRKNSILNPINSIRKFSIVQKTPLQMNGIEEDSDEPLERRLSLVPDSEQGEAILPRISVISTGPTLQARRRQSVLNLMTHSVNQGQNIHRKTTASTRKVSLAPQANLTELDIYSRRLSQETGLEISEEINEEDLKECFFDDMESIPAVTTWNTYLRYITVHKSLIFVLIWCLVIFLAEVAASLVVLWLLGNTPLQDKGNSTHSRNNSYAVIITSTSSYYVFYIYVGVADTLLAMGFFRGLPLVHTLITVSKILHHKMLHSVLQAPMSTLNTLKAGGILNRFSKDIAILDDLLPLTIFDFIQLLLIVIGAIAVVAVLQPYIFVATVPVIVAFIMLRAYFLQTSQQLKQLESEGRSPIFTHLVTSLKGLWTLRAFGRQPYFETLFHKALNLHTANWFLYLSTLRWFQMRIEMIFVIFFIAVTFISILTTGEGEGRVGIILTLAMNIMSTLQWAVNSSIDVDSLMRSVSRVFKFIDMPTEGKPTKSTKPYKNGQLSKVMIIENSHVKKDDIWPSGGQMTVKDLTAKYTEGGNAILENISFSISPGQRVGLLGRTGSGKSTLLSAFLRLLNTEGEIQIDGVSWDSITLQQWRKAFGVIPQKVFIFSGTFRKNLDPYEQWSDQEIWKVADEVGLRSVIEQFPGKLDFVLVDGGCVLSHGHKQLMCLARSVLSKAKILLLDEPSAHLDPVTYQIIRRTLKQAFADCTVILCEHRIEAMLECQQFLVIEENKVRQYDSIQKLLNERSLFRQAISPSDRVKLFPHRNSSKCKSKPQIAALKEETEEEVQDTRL
Assay: Measurement of delF508-CFTR-HRP surface expression in CFBE41o- cells
Format: cell-based
Conditions: HRP-tagged delF508-CFTR surface expression, CFBE41o- cells, 24 h with compound, 10-point curve, highest concentration 10 μM
pEC50: −log10 of the molar value.
Parameter: pEC50

- O=S1(=O)Nc2ccc(C(F)(F)F)c(n2)-c2ccccc2CCCCCN(CC(O)CO)c2cccc1n2 (centres unmarked) [Compound 128]: 6.56
- O=S1(=O)Nc2ccc(C(F)(F)F)c(n2)-c2ccccc2CCCCCCCCN(CCCCO)c2cccc1n2 [Compound 44]: 6.80

P: O=S1(=O)Nc2ccc(C(F)(F)F)c(n2)-c2ccccc2CCCCN(CCO)c2cccc1n2 [Compound 116]
Q: O=S1(=O)Nc2ccc(C(F)(F)F)c(n2)-c2ccccc2CCCCCN(C[C@H](O)[C@@H](O)CO)c2cccc1n2 [Compound 129]
Given P and given Q , which shows the smaller recorded pEC50? Respond using the label that marks the chosen record.
P

----------
Target: delF508-CFTR (Homo sapiens, UniProt P13569, DEL508-508)
Construct: expressed in transfected cells
Assay: Measurement of delF508-CFTR-HRP surface expression in CFBE41o- cells
Assay type: cell-based
Conditions: CFBE41o-; efficacy relative to reference compound 3-(6-(1-(2,2-difluorobenzo[d][1,3]dioxol-5-yl)cyclopropane-1-carboxamido)-3-methylpyridin-2-yl)benzoic acid; read-out: DelF508-CFTR-HRP Amax %
Parameter: Emax (%)

- O=C(O)CCN1CCCCc2ccccc2-c2nc(ccc2C(F)(F)F)NS(=O)(=O)c2cccc1n2: 306

I: COc1ccc2nc1-c1ccccc1CCCCCN(CCCCO)c1cccc(n1)S(=O)(=O)N2
II: O=S1(=O)Nc2ccc(Cl)c(n2)-c2cccnc2OCCCCCNc2cccc1n2
III: CC(C)(CO)CN1CCCCCc2ccccc2-c2nc(ccc2C(F)(F)F)NS(=O)(=O)c2cccc1n2
Falling order of Emax, please. Form entry: ranked labels (order as requested).
III, I, II
(III: 829%, I: 347%, II: 169%)

----------
Biological target: delF508-CFTR (Homo sapiens, UniProt P13569, DEL508-508)
Construct: expressed in transfected cells
Experiment: Measurement of delF508-CFTR-HRP surface expression in CFBE41o- cells
Assay type: cell-based
Details: CFBE41o-; efficacy relative to reference compound 3-(6-(1-(2,2-difluorobenzo[d][1,3]dioxol-5-yl)cyclopropane-1-carboxamido)-3-methylpyridin-2-yl)benzoic acid; read-out: DelF508-CFTR-HRP Amax %
Parameter: Emax (%)

• O=S1(=O)Nc2ccc(C(F)(F)F)c(n2)-c2ccccc2OCCCCN(CCO)c2cccc1n2 [Compound 2] = 610

I: NCCN1CCCCc2ccccc2-c2nc(ccc2C(F)(F)F)NS(=O)(=O)c2cccc1n2 [Compound 130]
II: O=C(O)CCCCCN1CCCCCc2ccccc2-c2nc(ccc2Cl)NS(=O)(=O)c2cccc1n2 [Compound 82]
Given I and given II , which shows the smaller recorded Emax? Respond using the label that marks the chosen record.
I
(I: 188%, II: 652%)

P: O=C(O)CNCCN1CCCCCc2ccccc2-c2nc(ccc2C(F)(F)F)NS(=O)(=O)c2cccc1n2 [Compound 127]
Q: O=S1(=O)Nc2ccc(C(F)(F)F)c(n2)-c2ccccc2COCCCNc2cccc1n2 [Compound 11]
Given P and given Q , which shows the smaller recorded Emax? Respond using the label that marks the chosen record.
P

----------
Molecular target: delF508-CFTR (Homo sapiens, UniProt P13569, DEL508-508)
Construct: expressed in transfected cells
Assay: Measurement of delF508-CFTR-HRP surface expression in CFBE41o- cells
Assay type: cell-based
Details: HRP-tagged delF508-CFTR surface expression, CFBE41o- cells, 24 h with compound, 10-point curve, highest concentration 10 μM
pEC50: −log10 of the molar value.
Parameter: pEC50

- O=C(O)CCC1CCCCc2ccccc2-c2nc(ccc2C(F)(F)F)NS(=O)(=O)c2cccc(n2)O1 (stereo not shown): 6.32

A: O=S1(=O)Nc2ccc(C(F)(F)F)c(n2)-c2ccccc2CCCCCN(CCCCO)c2cccc1n2
B: CN1CCCN(C)c2ncccc2-c2nc(ccc2C(F)(F)F)NS(=O)(=O)c2cccc1n2
Given A and given B , which shows the smaller recorded pEC50? Respond using the label that marks the chosen record.
B
(B: 5.77, A: 6.57)

----------
Biological target: delF508-CFTR (Homo sapiens, UniProt P13569, DEL508-508)
Construct: expressed in transfected cells
Assay: Measurement of delF508-CFTR-HRP surface expression in CFBE41o- cells
Assay type: cell-based
Details: HRP-tagged delF508-CFTR surface expression, CFBE41o- cells, 24 h with compound, 10-point curve, highest concentration 10 μM
pEC50: −log10 of the molar value.
Parameter: pEC50

Known results for compounds:
* O=S1(=O)Nc2ccc(C(F)(F)F)c(n2)-c2ccccc2CCCCCCNc2cccc1n2 [Compound 36] | 6.60
* O=S1(=O)Nc2ccc(C(F)(F)F)c(n2)-c2ccccc2CCCCN(CCCO)c2cccc1n2 [Compound 20] | 6.44
* O=S1(=O)Nc2ccc(Cl)c(n2)-c2ccccc2CCCOc2cccc1n2 [Compound 114] | 5.48
* O=S1(=O)Nc2ccc(C(F)(F)F)c(n2)-c2cccnc2NCCCNc2cccc1n2 [Compound 10] | 5.55

a: O=C(O)CCN1CCCCCCCCCc2ccccc2-c2nc(ccc2C(F)(F)F)NS(=O)(=O)c2cccc1n2 [Compound 75]
b: O=C(O)CCN1CCCCc2ccccc2-c2nc(ccc2C(F)(F)F)NS(=O)(=O)c2cccc1n2 [Compound 87]
Given a and given b , which shows the smaller recorded pEC50? Respond using the label that marks the chosen record.
b

A: O=C(O)CN1CCCCOc2ccccc2-c2nc(ccc2C(F)(F)F)NS(=O)(=O)c2cccc1n2 [Compound 4]
B: CC(C)(CN1CCCCCc2ccccc2-c2nc(ccc2C(F)(F)F)NS(=O)(=O)c2cccc1n2)C(=O)O [Compound 100]
Given A and given B , which shows the smaller recorded pEC50? Respond using the label that marks the chosen record.
A
(A: 5.54, B: 6.45)

----------
Target: delF508-CFTR (Homo sapiens, UniProt P13569, DEL508-508)
Construct: expressed in transfected cells
Assay: Measurement of delF508-CFTR functional activity in primary human bronchial epithelial cells (HBECs) using MTECC-24 assay
Format: cell-based
Conditions: primary human delF508-CFTR bronchial epithelial cells, 24 hr compound treatment, equivalent short circuit current, forskolin and potentiator; mean of at least two replicates; read-out: MTECC24 CFHBEC EC50
Parameter: EC50 (nM)

• O=C(O)CCCN1CCCCc2ccccc2-c2nc(ccc2C(F)(F)F)NS(=O)(=O)c2cccc1n2 = 4.6

A: O=S1(=O)Nc2ccc(C(F)(F)F)c(n2)-c2ccccc2CCCCCN(CCO)c2cccc1n2
B: CC(C)(CO)CN1CCCCCc2ccccc2-c2nc(ccc2C(F)(F)F)NS(=O)(=O)c2cccc1n2
Form field 'greater EC50' accepts A or B ; which applies? Respond using the label that marks the chosen record.
B

P: O=C(O)CCN1CCCCCc2ccccc2-c2nc(ccc2C(F)(F)F)NS(=O)(=O)c2cccc1n2
Q: CC(C)(CO)CN1CCCCCCc2ccccc2-c2nc(ccc2C(F)(F)F)NS(=O)(=O)c2cccc1n2
Given P and given Q , which shows the smaller recorded EC50? Respond using the label that marks the chosen record.
Q
(Q: 0.9 nM, P: 6.9 nM)

P: CC(C)(CN1CCCCCc2ccccc2-c2nc(ccc2C(F)(F)F)NS(=O)(=O)c2cccc1n2)C(=O)O
Q: O=C(O)CCN1CCCCCc2ccccc2-c2nc(ccc2Cl)NS(=O)(=O)c2cccc1n2
Given P and given Q , which shows the smaller recorded EC50? Respond using the label that marks the chosen record.
P

----------
Molecular target: delF508-CFTR (Homo sapiens, UniProt P13569, DEL508-508)
Construct: expressed in transfected cells
Assay: Measurement of delF508-CFTR-HRP surface expression in CFBE41o- cells
Assay type: cell-based
Settings: CFBE41o-; efficacy relative to reference compound 3-(6-(1-(2,2-difluorobenzo[d][1,3]dioxol-5-yl)cyclopropane-1-carboxamido)-3-methylpyridin-2-yl)benzoic acid; read-out: DelF508-CFTR-HRP Amax %
Method: Measurement of deIF508-CFTR-HRP Surface Expression in CFBE41o-Cells This assay quantifies the cell surface expressions of the mutant CFTR channel using an extracellular HRP tag. […] The median activity for the lowest concentration of the compounds on each assay plate was calculated and this value was used to normalize the signal for each well on the respective plate. […] The median value was determined and used to calculate compound activities as described below. […]
Parameter: Emax (%)

Known results for compounds:
* Cc1ccnc2c1-c1nc(ccc1Cl)NS(=O)(=O)c1cccc(n1)NCCCCCN2 [Compound 106] | 287
* O=S1(=O)Nc2ccc(C(F)(F)F)c(n2)-c2ccccc2OCCCCNc2cccc1n2 [Compound 1] | 372
* O=S1(=O)Nc2ccc(C(F)(F)F)c(n2)-c2ccccc2CCCCNCCNc2cccc1n2 [Compound 131] | 30.7
* Cc1ccc2nc1-c1ccccc1CCCCCN(CCCCO)c1cccc(n1)S(=O)(=O)N2 [Compound 19] | 490
* O=S1(=O)Nc2ccc(C(F)(F)F)c(n2)-c2ccccc2CCCCCN(CCN2CCCC2)c2cccc1n2 [Compound 122] | 226
* CN1CCCN(C)c2ncccc2-c2nc(ccc2C(F)(F)F)NS(=O)(=O)c2cccc1n2 [Compound 9] | 367

P: O=C(O)COCCN1CCCCCc2ccccc2-c2nc(ccc2C(F)(F)F)NS(=O)(=O)c2cccc1n2 [Compound 74]
Q: O=S1(=O)Nc2ccc(C(F)(F)F)c(n2)-c2ccccc2CCCCN(CCCO)c2cccc1n2 [Compound 20]
Given P and given Q , which shows the smaller recorded Emax? Respond using the label that marks the chosen record.
Q
(Q: 337%, P: 745%)

I: O=S1(=O)Nc2ccc(C(F)(F)F)c(n2)-c2ccccc2CCCCCN(CCCCO)c2cccc1n2 [Compound 25]
II: O=S1(=O)Nc2ccc(C(F)(F)F)c(n2)-c2ccccc2CCCCCN(C[C@H](O)[C@@H](O)CO)c2cccc1n2 [Compound 129]
III: O=S1(=O)Nc2ccc(C(F)(F)F)c(n2)-c2cccnc2NCCCCCNc2cccc1n2 [Compound 6]
Falling order of Emax, please. Form entry: ranked labels (order as requested).
I, II, III

I: O=C(O)CCN1CCCCCc2ccccc2-c2nc(ccc2C(F)(F)F)NS(=O)(=O)c2cccc1n2 [Compound 92]
II: O=C(O)CCCN1CCCCc2ccccc2-c2nc(ccc2C(F)(F)F)NS(=O)(=O)c2cccc1n2 [Compound 90]
Given I and given II , which shows the smaller recorded Emax? Respond using the label that marks the chosen record.
II
